# EXPERIMENTAL PROTOCOL: Cell Viability - H-4-II-E (AID 543);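 also: cells exposed to compound for 40 hours; nearly all actives have a fitted effect of over 35% in size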
# CONDITIONS: H-4-II-E rat hepatoma viability; series mostly up to 92.2 µM
Results filed as inconclusive are left out. The source made the active and inactive calls. Calls follow the shape of the dose curve; as a rule, active = well fitted cell-killing curve with a large enough effect; inconclusive = small, poorly fitted or top-dose-only effect; inactive = flat fitted curve, though single readings scatter.
ENDPOINT LABEL: outcome

Here is how some molecules turned out for outcome.
[
  {
    "MOLECULE": "C=C(C)C(N)=O",
    "outcome": "inactive"
  },
  {
    "MOLECULE": "Oc1cccc(Nc2ccccc2)c1",
    "outcome": "inactive"
  },
  {
    "MOLECULE": "C=CCCC",
    "outcome": "inactive"
  },
  {
    "MOLECULE": "CC(C)CCOC(=O)/C=C/c1ccccc1",
    "outcome": "inactive"
  },
  {
    "MOLECULE": "COC(=O)c1ccccc1",
    "outcome": "inactive"
  }
]

In the following, a different molecule is considered.
For record Nc1cccc(N)c1 the listed outcome is inactive
